experimental system: Serotonin 3 (5-HT3) receptor (Rattus norvegicus, UniProt P35563+Q9JJ16)
Sequence (P35563 whole entry): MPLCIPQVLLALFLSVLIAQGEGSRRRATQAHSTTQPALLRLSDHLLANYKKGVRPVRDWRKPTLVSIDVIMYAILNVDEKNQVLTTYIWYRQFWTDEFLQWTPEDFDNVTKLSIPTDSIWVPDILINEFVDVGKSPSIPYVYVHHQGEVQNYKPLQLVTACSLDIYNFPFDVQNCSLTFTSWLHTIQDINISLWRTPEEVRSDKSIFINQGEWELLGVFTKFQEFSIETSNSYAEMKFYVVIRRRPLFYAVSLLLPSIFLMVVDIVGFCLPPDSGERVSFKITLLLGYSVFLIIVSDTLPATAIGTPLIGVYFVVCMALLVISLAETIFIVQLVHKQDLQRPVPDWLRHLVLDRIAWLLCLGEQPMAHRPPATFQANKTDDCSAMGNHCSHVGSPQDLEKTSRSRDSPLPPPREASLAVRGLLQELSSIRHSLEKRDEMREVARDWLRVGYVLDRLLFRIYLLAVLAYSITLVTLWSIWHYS
Sequence (Q9JJ16 whole entry): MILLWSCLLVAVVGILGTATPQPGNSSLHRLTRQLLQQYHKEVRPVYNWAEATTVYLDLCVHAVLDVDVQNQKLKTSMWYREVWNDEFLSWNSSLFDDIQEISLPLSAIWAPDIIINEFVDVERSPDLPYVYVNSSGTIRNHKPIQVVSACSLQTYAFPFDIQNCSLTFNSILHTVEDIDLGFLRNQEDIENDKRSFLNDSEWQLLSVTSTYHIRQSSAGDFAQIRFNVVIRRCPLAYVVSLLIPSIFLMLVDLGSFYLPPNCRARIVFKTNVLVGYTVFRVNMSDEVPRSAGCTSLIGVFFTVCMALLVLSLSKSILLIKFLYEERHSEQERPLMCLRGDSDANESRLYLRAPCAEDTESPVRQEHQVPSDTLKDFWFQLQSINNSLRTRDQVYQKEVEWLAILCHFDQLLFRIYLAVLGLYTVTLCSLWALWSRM
protocol details: Inhibition of [3H]GR-65630 binding to rat cortical membrane 5-hydroxytryptamine 3 receptor
quantity: IC50 (nM)

{"columns": ["molecule", "IC50, nM"],
 "data": [
  ["CCNc1nc(OC)c(C(=O)NC2CN(C)CCN(CC)C2)cc1Cl (configuration not stated)", 2],
  ["CCNc1nc(OC)c(C(=O)NC2CN(C)CCN(CC)C2)cc1Br (configuration not stated)", 3.8],
  ["CCN1CCN(C)C[C@H](NC(=O)c2cc(Cl)c(NC)nc2OC)C1", 2.1],
  ["CCN1CCN(C)CC(NC(=O)c2cc(Cl)c(NC)nc2OC)C1 (configuration not stated)", 1.3]
]}

(A) CCN1CCN(C)CC(NC(=O)c2cc(Br)c(N(C)C)nc2OC)C1 (configuration not stated)
(B) CCN1CCN(C)C[C@@H](NC(=O)c2cc(Br)c(NC)nc2OC)C1
For the pair A and B , which entry has the numerically smaller recorded IC50? Let me know the label of the one you choose.
B

(1) CCN1CCN(C)CC(NC(=O)c2cc(Cl)c(N)nc2OC)C1 (configuration not stated)
(2) CCN1CCN(C)CC(NC(=O)c2cc(Br)c(NC)nc2OC)C1 (configuration not stated)
(3) CCN1CCN(C)C[C@@H](NC(=O)c2cc(Cl)c(NC)nc2OC)C1
(4) CCN1CCN(C)C[C@@H](NC(=O)c2cc(Cl)c(NC)cc2OC)C1
(5) CCN(CC)CCNC(=O)c1cc(Cl)c(N)cc1OC [METOCLOPRAMIDE]
# rank by IC50, ascending (min first) # output: labels, in the requested order
2, 3, 4, 1, 5
(2: 1 nM, 3: 1.6 nM, 4: 2.9 nM, 1: 5.1 nM, 5: 880 nM)

Ref: ChEMBL document CHEMBL1131345
